B1: Twister Ribozyme (parent)
chain: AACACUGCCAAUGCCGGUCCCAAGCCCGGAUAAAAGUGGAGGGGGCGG

Variants of: B1
MEASUREMENT_PROTOCOL: self-cleavage, relative activity (ratio to wild type); higher = more cleavage; co-transcriptional
Label yes for high-side self-cleavage (at or above 0.2) and no for low-side self-cleavage (below it).

# SEQUENCE_CONTENT, QUALITATIVE_LABEL
measured = [
    ("AACGCUGCCAAUGCCGGUCCCAAGCCCGGAUAAAGGUGGAGGGGGCGG [A4G A35G]", "yes"),
    ("AACACUGCCAAUGCCGUUCCCAAGCCCGGAUAAAAGUGGAGGGGCCGG [G17U G45C]", "no"),
    ("AACACUGCCCAUGCCGGUCCCGAGCCCGGAUAAAAGUGGAGGGGGCGG [A10C A22G]", "yes"),
    ("AACACUGCCAAUGCCGGUCCCAAGACCGGAUAAAAAUGGAGGGGGCGG [C25A G36A]", "no"),
    ("AACACUGCCAAUGCCGGUCCUAAGCCUGGAUAAAAGUGGAGGGGGCGG [C21U C27U]", "no"),
    ("AACACUGCCAAUACCGGUCCCAAGCCCGGAUAAAAGUGCAGGGGGCGG [G13A G39C]", "no"),
    ("AACAGUGCCAAUGCAGGUCCCAAGCCCGGAUAAAAGUGGAGGGGGCGG [C5G C15A]", "yes"),
    ("AACAGUGCCAAUGCCGGUCCCAAGCCCGGAUAAAAGUGGAUGGGGCGG [C5G G41U]", "no"),
    ("AACAGUGCCAAUGCCGCUCCCAAGCCCGGAUAAAAGUGGAGGGGGCGG [C5G G17C]", "no"),
    ("AACACUGCCAAUGCCGGUCCCAAGCCCGGAUAAAAGUGGAGGGCGUGG [G44C C46U]", "yes"),
    ("AACACUGCCAAUGCCGGUCCCAAGCCCGGAUAAAAGUUAAGGGGGCGG [G38U G39A]", "no"),
    ("AACACCGCCAAUGCCGGUCCCAAGCCCGGGUAAAAGUGGAGGGGGCGG [U6C A30G]", "yes"),
    ("AACACUGCCAAUGCCGGUGCCAAGCCCGGAUAAAAGUGGAGGUGGCGG [C19G G43U]", "yes"),
    ("AACACUGCCAAUGCCGGCCCCAACCCCGGAUAAAAGUGGAGGGGGCGG [U18C G24C]", "no"),
    ("AACACUGGCAAUGCCGGUUCCAAGCCCGGAUAAAAGUGGAGGGGGCGG [C8G C19U]", "no"),
    ("GACACUGCCAAUGCCGGUCCCAAGCCCGGAUAAAAGUGGAGGGCGCGG [A1G G44C]", "yes"),
    ("AACACUGCCAAUGCCUGUCCCAAGCCCGGAUAAAAGUGCAGGGGGCGG [G16U G39C]", "no"),
    ("AACACUGCCAAUGCCGGACCCAAGCCCUGAUAAAAGUGGAGGGGGCGG [U18A G28U]", "yes"),
    ("AACAUUGCCAAUGCCGGUCCCAAGCCCGGAUAAAAGUGGAGGGGUCGG [C5U G45U]", "yes"),
    ("ACCACUGCCAAUGCCGGUCCCAAGCCCGGAUAAAAAUGGAGGGGGCGG [A2C G36A]", "no"),
    ("AAUACUGCCAAUGCCGGUCCCAAGCCCGGAUAAAAGUGAAGGGGGCGG [C3U G39A]", "no"),
    ("AACACUGCCAAUGCCGGUCCCCAGCCCGGAUAAAAGUGGAGGGUGCGG [A22C G44U]", "yes"),
    ("AACACUGCCAAAGGCGGUCCCAAGCCCGGAUAAAAGUGGAGGGGGCGG [U12A C14G]", "no"),
    ("AACACUGCCGAUGCCGGUCCCAAGCCCGGAUAAAAGUGGAGGGGACGG [A10G G45A]", "yes"),
    ("AACACUGCCAAUGCCGGUCCCGAGCCCGGAUAACAGUGGAGGGGGCGG [A22G A34C]", "no"),
    ("AACACUGCCAAUGGCGGUCCCAAGCCCGGAUAAAAGUGGAGGGGGCGC [C14G G48C]", "no"),
    ("AACACUGCCAAUGCCGGUCACAAGCCCGGAUAAAAGUGGAGGGGGUGG [C20A C46U]", "no"),
    ("AACACUGCCAAUGCCGGUCCCAAGCCCGGAUAAAAGUUGAGUGGGCGG [G38U G42U]", "no"),
    ("AACACUGCCAAUGCCCGUCCCAAGCCCGGAUAAAAGUGUAGGGGGCGG [G16C G39U]", "no"),
    ("AACACUGCCACUGCCGGUCCCAAGCCCGGAUAAAAGUCGAGGGGGCGG [A11C G38C]", "yes"),
    ("AACACUGCCAAUGCCGGUCCCAAGCCCGGAUAAAAGUGGAGCGUGCGG [G42C G44U]", "no"),
    ("UACACUGCCAAUGCCGGUCCCAAGCCCGGAUAAAAAUGGAGGGGGCGG [A1U G36A]", "no"),
    ("AACACGGCCAAUGCCGGUCCCAAGCCCGGAUAAAAGUGGAGGGGGCAG [U6G G47A]", "no"),
    ("AACAUUGCCAAUGCCGGUCCCAAGCCCGGAUAAAAGUGGAGGGGGCUG [C5U G47U]", "yes"),
    ("AACACUGCCAAUGCCGGUCCCAAGCGCGGAUAAUAGUGGAGGGGGCGG [C26G A34U]", "no"),
    ("AACACUGCCAAUGCCGGACCCAAGCCCGGACAAAAGUGGAGGGGGCGG [U18A U31C]", "yes"),
    ("AACACUGCCAAUGCCCGUCCCAAGCCCGGAUAAAAGUGGAAGGGGCGG [G16C G41A]", "no"),
    ("AACACUGCCAAUGCCGGACCCAAGCCCGGAUAAAAGCGGAGGGGGCGG [U18A U37C]", "no"),
    ("AACACUGCCAAUGCCGGUCCCAAGCCCGGAUAAAUGUGGGGGGGGCGG [A35U A40G]", "no"),
    ("AACACUGCCCAUGCCGCUCCCAAGCCCGGAUAAAAGUGGAGGGGGCGG [A10C G17C]", "no"),
    ("AACACUGCCAAUGGCGGUACCAAGCCCGGAUAAAAGUGGAGGGGGCGG [C14G C19A]", "no"),
    ("AAUACUGCCAAUGCCGGUCCCAAGCCCGGAUAAAAGUGGAUGGGGCGG [C3U G41U]", "no"),
    ("AACACUGCCAAUACUGGUCCCAAGCCCGGAUAAAAGUGGAGGGGGCGG [G13A C15U]", "yes"),
    ("AACAAUGCCAAUGCCGGUCCCAAGCCCGGAUUAAAGUGGAGGGGGCGG [C5A A32U]", "yes"),
    ("AACACUGCCAAUGCCGGUCCCAAGCCCGGAUAAAAGUGGACGUGGCGG [G41C G43U]", "no"),
    ("AACACUGCCAAUGCGGCUCCCAAGCCCGGAUAAAAGUGGAGGGGGCGG [C15G G17C]", "no"),
    ("AACACUGCCAAUGCCGGUCCCACGCCCGGUUAAAAGUGGAGGGGGCGG [A23C A30U]", "yes"),
    ("AACACUGCCACUGCCGGUCCCAAGCCCGGAUCAAAGUGGAGGGGGCGG [A11C A32C]", "yes"),
    ("AACACUACCAAUGCCGGUCCCAAGCCCGGAUAAACGUGGAGGGGGCGG [G7A A35C]", "yes"),
    ("AACACUGCCAAUGCCGGUGCCAAGCCCGGAUAAUAGUGGAGGGGGCGG [C19G A34U]", "no"),
    ("AACACUGCCAACGCCGGUGCCAAGCCCGGAUAAAAGUGGAGGGGGCGG [U12C C19G]", "yes"),
    ("AACACUGCCAAUGCCGGUCCCAAGCCCGGAUAUAAGUGAAGGGGGCGG [A33U G39A]", "yes"),
    ("GACACUGCCAAUGCCGGUCCCAAGCCCGGAUAAAAGUGGAGGGGGCGA [A1G G48A]", "yes"),
    ("AACACUGCCAAUGCCGGUUCCAAGUCCGGAUAAAAGUGGAGGGGGCGG [C19U C25U]", "yes"),
    ("AACACUGCCAAUGCCGGUCCCAAUCCCGGAUAAAAGUGGCGGGGGCGG [G24U A40C]", "no"),
    ("AACACUGCCAAUGCCGGUCCCCAGCCCGGAUAAAAGAGGAGGGGGCGG [A22C U37A]", "yes"),
    ("AACACUGCCAAUGCCGUUCCCAAGCCCGGAUAAAAGUGGAGGGGGCAG [G17U G47A]", "yes"),
    ("AACACUGCCAAUGCCGGUCCCAAGCCCGGAUAAAAGUGGAUGGGCCGG [G41U G45C]", "no"),
    ("AACACUGCCAAUGCCGGUCCCAAGCCCGGAUAAUAGUGGAGAGGGCGG [A34U G42A]", "no"),
    ("AACUCUGCCAAUGCCGGUCCGAAGCCCGGAUAAAAGUGGAGGGGGCGG [A4U C21G]", "no"),
    ("AACACUGCCAAUGCCCGUCCCAAGCCCGGCUAAAAGUGGAGGGGGCGG [G16C A30C]", "yes"),
    ("AACUCUGCCAAUGCCGGUCCCAAGCCCGGAUAAAAGUGGAGGGGGUGG [A4U C46U]", "no"),
    ("AACACUGCCACUGCCGGUCCCAGGCCCGGAUAAAAGUGGAGGGGGCGG [A11C A23G]", "yes"),
    ("AACACCGCCAAUGCCGGUCCCAAGCCCGGAUAAAAGUGGAGGGGGGGG [U6C C46G]", "yes"),
    ("AGCACUGCCAAUGCCGGUCCCAAGCGCGGAUAAAAGUGGAGGGGGCGG [A2G C26G]", "no"),
    ("AACACUGCCAAUGCCGGUCCCAAGCCCAGGUAAAAGUGGAGGGGGCGG [G28A A30G]", "yes"),
    ("AACUCUGCCAAUGCCGGUCCCAAGCCCGGAUAAAAGUGGAGGCGGCGG [A4U G43C]", "no"),
    ("AACACUGCCCAUGCCGGUCCCAAGCCCGGAUAAUAGUGGAGGGGGCGG [A10C A34U]", "yes"),
    ("AGCACUGCCAAUGCCGGUCCCAAGCCCGGAUAAAAGUGGAGGGGCCGG [A2G G45C]", "no"),
    ("AACACUGCCAAUGCCGGUCCCAAGCCCGGAUCAAAGUGGAGGAGGCGG [A32C G43A]", "yes"),
    ("AACACUGCCAAUGCCGGUCCCAAGCCCGGAAAAAAGUUGAGGGGGCGG [U31A G38U]", "yes"),
    ("AACACUGUCAAUGCCGGUCACAAGCCCGGAUAAAAGUGGAGGGGGCGG [C8U C20A]", "no"),
    ("AACACUGGCACUGCCGGUCCCAAGCCCGGAUAAAAGUGGAGGGGGCGG [C8G A11C]", "yes"),
    ("AACACUGCCAAUGCCGGGCCCAAGCCCGGAGAAAAGUGGAGGGGGCGG [U18G U31G]", "no"),
    ("AACACUGCCAAUGCCGGUCCCAAGCCAAGAUAAAAGUGGAGGGGGCGG [C27A G28A]", "yes"),
    ("GACACUGCUAAUGCCGGUCCCAAGCCCGGAUAAAAGUGGAGGGGGCGG [A1G C9U]", "yes"),
    ("AACACUGCCAAUGCCGGUCCCAAGCCCGGAUAAAAGUGGAGGGGGAGC [C46A G48C]", "yes"),
]
